Data origin: ChEMBL document CHEMBL1151705

Attribute: MIC
- Tested on: Streptococcus pneumoniae
- TEST PROTOCOL: Antimicrobial activity against Streptococcus pneumoniae 7 expressing inducible ermB after 20 hrs by agar dilution method
- Assay type: functional
Supply the numeric figure in mg/L, leaving out any unit text.

Example cases with answers are listed next.
-- ask What MIC value was documented for this compound, CCOC(=O)[C@H]1[C@H](C)O[C@@H](O[C@H]2[C@H](N(C)C)[C@@H](O)[C@H](O[C@H]3[C@@H](CC=O)C[C@@H](C)[C@@H](O)CN(C)CCC(CCCc4ccnc5ccccc45)NC(=O)C[C@@H](OC(=O)CC)[C@@H]3OC)O[C@@H]2C)C[C@@]1(C)O (stereo in doubt; form 2) ?
-- reply 64

-- ask Try this compound next: CCOC(=O)[C@H]1[C@H](C)O[C@@H](O[C@H]2[C@H](N(C)C)[C@@H](O)[C@H](O[C@H]3[C@@H](CC=O)C[C@@H](C)[C@@H](O)CN(C)CC(/C=C/Cc4ccnc5ccccc45)CCOC(=O)C[C@@H](OC(=O)CC)[C@@H]3OC)O[C@@H]2C)C[C@@]1(C)O (stereo in doubt; form 1)
-- reply 8

Could you now consider this next compound?
-- ask What MIC value was documented for this compound, CCOC(=O)[C@H]1[C@H](C)O[C@@H](O[C@H]2[C@H](N(C)C)[C@@H](O)[C@H](O[C@H]3[C@@H](CC=O)C[C@@H](C)[C@@H](O)CN(C)CC(/C=C\Cc4ccnc5ccccc45)CCOC(=O)C[C@@H](OC(=O)CC)[C@@H]3OC)O[C@@H]2C)C[C@@]1(C)O (stereo in doubt; form 1) ?
-- reply 8

----------
- Tested on: Staphylococcus aureus
- TEST PROTOCOL: Antimicrobial activity against drug-susceptible Staphylococcus aureus 2 after 20 hrs by agar dilution method
- Assay type: functional
- CONDITION INFO: Staphylococcus aureus, 20 h; read-out: MIC
PARAMETER MEASURED: MIC (µg/mL)

-- ask What MIC value was documented for this compound, CCOC(=O)[C@H]1[C@H](C)O[C@@H](O[C@H]2[C@H](N(C)C)[C@@H](O)[C@H](O[C@H]3[C@@H](CC=O)C[C@@H](C)[C@@H](O)CN(CCCCc4ccccc4)CC[C@@H](C)OC(=O)C[C@@H](OC(=O)CC)[C@@H]3OC)O[C@@H]2C)C[C@@]1(C)OC(C)=O ?
-- reply 0.5

(P) CCOC(=O)[C@H]1[C@H](C)O[C@@H](O[C@H]2[C@H](N(C)C)[C@@H](O)[C@H](O[C@H]3[C@@H](CC=O)C[C@@H](C)[C@@H](OC(C)=O)CN(C)CCN(CCCCc4ccccc4)C(=O)C[C@@H](OC(=O)CC)[C@@H]3OC)O[C@@H]2C)C[C@@]1(C)OC(C)=O
(Q) CCOC(=O)[C@H]1[C@H](C)O[C@@H](O[C@H]2[C@H](N(C)C)[C@@H](O)[C@H](O[C@H]3[C@@H](CC=O)C[C@@H](C)[C@@H](O)CN(CCCc4ccnc5ccccc45)CC[C@@H](C)OC(=O)C[C@@H](OC(=O)CC)[C@@H]3OC)O[C@@H]2C)C[C@@]1(C)OC(C)=O
(R) CCOC(=O)[C@H]1[C@H](C)O[C@@H](O[C@H]2[C@H](N(C)C)[C@@H](O)[C@H](O[C@H]3[C@@H](CC=O)C[C@@H](C)[C@@H](O)CN(C)CCC[C@H](C/C=C/c4cnc5ccccc5c4)OC(=O)C[C@@H](OC(=O)CC)[C@@H]3OC)O[C@@H]2C)C[C@@]1(C)O
-- ask Hi! Can you put these in order of MIC, lowest number first? Answer format: list of labels, ordered as asked.
-- reply Q, R, P
(Q: 0.5 µg/mL, R: 1 µg/mL, P: 2 µg/mL)
